The values you see were collected from PubChem BioAssay (NCI).

This listing pairs compounds with measured growth.
Tested on: UO-31 renal
Test: NCI-60 one-dose screen, 48 h (100 = growth as untreated, 0 = no growth, -100 = all killed)
Settings: 10 µM unless noted
About 83,000 compounds went through this panel and 20% of them were active in at least one assay; those are over-represented in the sample as a whole.
Form entry: value (%) — number only.

Example cases with answers are listed next.
COMPOUND: COc1ccc2cc(-c3ccc(-c4ccc(C(=N)N)s4)s3)ccc2c1
UNIT ABBREVIATION: %
growth: 36.6
//
COMPOUND: O=C(N=Nc1c(O)[nH]c2ccccc12)Nc1ccc(Cl)cc1
UNIT ABBREVIATION: %
growth: 69.2
//
COMPOUND: NS(=O)(=O)c1ccc(N/C=C/C(=O)c2cc3ccccc3oc2=O)cc1
UNIT ABBREVIATION: %
growth: 62.4

Entry `O[C@@H](c1cc(C(F)(F)F)nc2c(C(F)(F)F)cccc12)[C@H]1CCCCN1` — recorded growth = 50.4

Entry `Cc1cc(N2CCCCC2)nc(N2CCN(CC(=O)Nc3ccc4c(ccn4Cc4ccccc4)c3)CC2)n1` — recorded growth = 30

Entry `O=S(=O)(c1ccccc1)N1CCCN(c2nc(-c3ccccc3)nc3nc(-c4ccccc4)oc23)CC1` — recorded growth = 85.3

Entry `COc1ccc2cc(Cn3cc[n+](Cc4ccc5ccccc5c4)c3)ccc2c1` — recorded growth = 84.4

Entry `CCOC(=O)c1c(NC(=O)c2ccc(OC)cc2)sc2c(CN(C)C)c(O)ccc12` — recorded growth = 88.8

Entry O=C(/C=C/C12c3ccccc3C(c3ccccc31)C1C(=O)NC(=O)C12)c1ccc(F)cc1 (stereo not given) — recorded growth = 15.8

Entry `N#CC(C#N)N=Nc1ccc(Cl)cc1Cl` — recorded growth = 57.8

====

Tested on: IGROV1 ovarian
Assay: NCI-60 one-dose screen, 48 h
Settings: 10 µM unless noted
This is part of a sample that, as a whole, favours compounds with a hit. Of some 83,000 tested, about 20% had one in any assay. The source made the active and inactive calls. Rule for the calls: active = growth percent below 10; inactive = the rest.
// allowed return values: active, inactive

Solved cases (4 shown):
COMPOUND: CN1CCN(Cc2ccc(NC(=O)c3cncc(C#Cc4cncc5ncccc45)c3)cc2C(F)(F)F)CC1
LABEL: active

COMPOUND: Fc1ccc(COc2ccc(Nc3ncnc4sc5c(c34)CCCC5)cc2)cc1
LABEL: inactive

COMPOUND: CC(O)c1ncc(/C=C2\SC(=S)N(Cc3ccccc3)C2=O)s1 (stereo not given)
LABEL: inactive

COMPOUND: CC(=O)c1cc(-c2ccccc2N)n(-c2ccc3c(c2)OCO3)c1C
LABEL: inactive

# fetch the recorded call for `C=C(c1ccc(C(=O)O)cn1)c1cc2c(cc1C)C(C)(C)CCC2(C)C` here inactive

====

This listing pairs compounds with measured growth.
System: NCI-H23 lung
Experiment: NCI-60 one-dose screen, 48 h (100 = growth as untreated, 0 = no growth, -100 = all killed)
Settings: 10 µM unless noted
This is part of a sample that, as a whole, favours compounds with a hit. Of some 83,000 tested, about 20% had one in any assay. Active and inactive are the calls of the source. The calls were made as follows: active = growth percent below 10; inactive = the rest.

Entry `COc1cc2c(c(OC)c1OC)C(=O)N[C@@H]1[C@@H](O)[C@@H](O)[C@H](O)C[C@@H]21` — recorded growth = 106% (inactive)

Entry `O=C1NC(=Nc2ccc(O)cc2)S/C1=C\c1cccs1` — recorded growth = 47.4% (inactive)

Entry `O=C(CCCCCCCCC(=O)N/N=C\c1cc(Cl)ccc1O)N/N=C\c1cc(Cl)ccc1O` — recorded growth = 47.9% (inactive)

Entry `CCN(CC)c1ccc(/C=N\NC(=O)c2cccc(Nc3ccnc(C(F)(F)F)c3)c2)c(O)c1` — recorded growth = 39.5% (inactive)

Entry `CN(C)c1ccc(C(=NO)c2ccc(N(C)C)cc2)cc1` — recorded growth = 47.3% (inactive)

Entry CC1(C)C2CC=C(/C=N/NC(=O)C3CCC(=O)N3)C1C2 (stereo not given) — recorded growth = 97.7% (inactive)

====

System: NCI-H226 lung
Test: NCI-60 one-dose screen, 48 h (100 = growth as untreated, 0 = no growth, -100 = all killed)
Conditions: 10 µM unless noted
The panel holds about 83,000 compounds, 20% with a hit somewhere; the sample as a whole holds those more often.
Binary call on growth with cut-off 80%: strictly below means Condition met, and equality or higher means Condition not met.

Solved cases (10 shown):
COMPOUND: Cc1nc2sc(C(=O)Nc3ccc(Cl)cc3)c(N)c2cc1C(O)c1ccccc1 (centres undefined)
LABEL: Condition met

COMPOUND: CC[C@@H](c1ccc2cc(OC)ccc2c1)C(C)(C)C(=O)F
LABEL: Condition not met

COMPOUND: COc1cc2ncnc(Nc3ccc(F)c(Cl)c3)c2cc1OCC(=O)N1CCN(c2ccc(F)cc2)CC1
LABEL: Condition not met

COMPOUND: Cc1ccc(/C=C2\CN(C(=O)C(Cl)Cl)C/C(=C\c3ccc(C)cc3)C2=O)cc1
LABEL: Condition met

COMPOUND: N=C(N)SCc1cccc2c(CSC(=N)N)cccc12
LABEL: Condition not met

COMPOUND: CCOC(=O)NN1CC(O)=C(c2nc(-c3ccc(Br)cc3)cs2)C1=N
LABEL: Condition not met

COMPOUND: c1ccc(CNc2ccc3nc(CCC4CCCCC4)[nH]c3c2)cc1
LABEL: Condition met

COMPOUND: N#Cc1nc(-c2ccc(F)cc2)oc1S(=O)(=O)N1CCN(c2ccc(F)cc2)CC1
LABEL: Condition not met

COMPOUND: CCOc1ccc(/C=N\N=C\c2ccc(OCC)cc2)cc1
LABEL: Condition not met

COMPOUND: CCN(CC)CCCC(C)Nc1ccc2cc(OC)ccc2n1 (centres undefined)
LABEL: Condition not met

For `CCCCCCCCn1ccc2cc(NC(=O)Cn3cc(CN4CCN(CC)CC4)nn3)ccc21` , is the recorded growth below the cut-off of 80%? Condition not met

For `CCCn1c(=S)sc2c1nc(C)n1c(Nc3ccccc3)nnc21` , is the recorded growth below the cut-off of 80%? Condition met

====

Tested on: CCRF-CEM leukemia
Assay: NCI-60 one-dose screen, 48 h
Conditions: 10 µM unless noted
About 83,000 compounds went through this panel and 20% of them were active in at least one assay; those are over-represented in the sample as a whole. Active and inactive are the calls of the source. The calls were made as follows: active = growth percent below 10; inactive = the rest.
// allowed return values: y = active, n = inactive

Solved cases (5 shown):
COMPOUND: O=C1Nc2ccc(F)cc2/C1=C\c1nc(-c2ccccc2F)n2ccccc12
ASSAY TARGET: CCRF-CEM leukemia
LABEL: n

COMPOUND: CCN1C(=O)N(CC)C2C1NN=c1s/c(=C\c3cc4ccccc4[nH]3)c(=O)n12 (stereo unspecified)
ASSAY TARGET: CCRF-CEM leukemia
LABEL: y

COMPOUND: C[Se]C(=O)CC1=C2C=C(F)C=CC2/C(=C\c2ccc(S(C)=O)cc2)C1C (stereo unspecified)
ASSAY TARGET: CCRF-CEM leukemia
LABEL: n

COMPOUND: Cc1ccc(C)c(-n2c(-c3ccc(Br)cc3)csc2=NC(=O)c2ccccc2F)c1
ASSAY TARGET: CCRF-CEM leukemia
LABEL: n

COMPOUND: C#Cc1cccc(Oc2ccc(NC(=O)CCl)cc2)c1
ASSAY TARGET: CCRF-CEM leukemia
LABEL: y

# fetch the recorded call for `CCOC(=O)/C=C/c1c(C)[nH]c(=O)[nH]c1=O` here n

# fetch the recorded call for `CCN(CC)CCCNCc1cc(-c2ccccc2)nc2cc(Cl)ccc12` here n

# fetch the recorded call for `COc1ccc(Cn2cc(C(=O)N=Nc3c(O)[nH]c4c(Cl)cccc34)nn2)cc1` here n

# fetch the recorded call for `CCOC(=O)c1ccc2c(c1)c1c(C)c3ccncc3c(C)c1n2C` here n

# fetch the recorded call for `COc1cccc(/C=C/C(=O)c2cc3c(N)c(C(=O)Nc4cccc(Cl)c4C)sc3nc2C)c1` here y

# fetch the recorded call for `O=C1CCCc2nc3sc4c(=O)n(-c5ccccc5Cl)nnc4c3cc21` here n

# fetch the recorded call for `N#Cc1c(-c2cccc([N+](=O)[O-])c2)cc(-c2ccc(Nc3nc(Nc4ccc(F)cc4)nc(Nc4ccc(F)cc4)n3)cc2)nc1N` here n

# fetch the recorded call for `O=C(N=Nc1c(O)[nH]c2ccccc12)Nc1ccc(Cl)cc1` here y

# fetch the recorded call for COc1ccc(C2=NN(C(=O)c3cc(OC)c(OC)c(OC)c3)C(c3ccc(N(C)C)cc3)C2)cc1 (stereo unspecified) here n

# fetch the recorded call for `O=C(CCl)Nc1ccc2c(Nc3cc(O)ccc3Cl)ncnc2c1` here y

# fetch the recorded call for `CC/C(Cc1ccccc1)=C(\c1ccc(OCCN2CCCCCC2)cc1)c1ccc(OC(=O)NCc2ccccc2)cc1` here n

====

System: IGROV1 ovarian
Experiment: NCI-60 one-dose screen, 48 h (100 = growth as untreated, 0 = no growth, -100 = all killed)
Settings: 10 µM unless noted
This is part of a sample that, as a whole, favours compounds with a hit. Of some 83,000 tested, about 20% had one in any assay.
Assign classes using reported growth values and the ranges category 1 = under 50%, category 2 = from 50% up to 80%, category 3 = 80% and over, please.

Solved cases (4 shown):
COMPOUND: COc1ccc2c(c1)c(-c1cc(-c3cn(C)c4ccc(OC)cc34)on1)cn2C
LABEL: category 3
--
COMPOUND: CN1CCCc2cc(/C=C3/SC(=S)N(CCc4ccc(O)cc4)C3=O)ccc21
LABEL: category 2
--
COMPOUND: COC(=O)/C(CCC=C(C)C)=C1\[C@@H](OC(C)=O)C[C@@]2(C)[C@H]1CC(=O)[C@H]1[C@@]3(C)CCC(N4CCCC4)[C@@H](C)[C@@H]3CC[C@@]12C (stereo not given in full)
LABEL: category 3
--
COMPOUND: COc1cc(C(=O)c2c(-c3ccccc3)oc3c(OC)cccc23)cc(OC)c1O
LABEL: category 1

Lab note: which band did `CCN(CC)CCCNCc1cc(-c2ccccc2)nc2cc(Cl)ccc12` land in? category 1

Lab note: which band did `Cn1cc(-c2nn3cc(-c4ccccc4)nc3s2)c2ccccc21` land in? category 2

Lab note: which band did CCOC(=O)C1=C(c2ccccc2)N=c2s/c(=C/c3ccc(Br)cc3)c(=O)n2C1c1ccc(O)cc1 (stereo not given) land in? category 3

Lab note: which band did `CN1C(=O)/C(=C/c2ccc(C(=O)Nc3ncc(Cc4ccc(F)cc4)s3)cc2)SC1=S` land in? category 2

Lab note: which band did `COc1cc2ncnc(Nc3ccc(F)c(Cl)c3)c2cc1OCC(=O)N1CCN(c2ccc(F)cc2)CC1` land in? category 1

Lab note: which band did Nc1c(C(=O)Nc2ccccn2)sc2nc3c(cc12)C(O)CCC3 (stereo not given) land in? category 1

Lab note: which band did `O=C(N/N=C/c1ccc([N+](=O)[O-])cc1)c1ccc2nc(-c3ccc(Cl)cc3)[nH]c2c1` land in? category 1

Lab note: which band did `CCCCCCCCCCCCCCCCOC(=O)c1c(C)[nH]c(/C=C2\N=C(c3ccc[nH]3)C=C2OC)c1C` land in? category 1
